biological target: T1, Soluble CD28-Ig (human, UniProt P10747 19-152, biotin-conjugated (NHS-biotin) in the labelled-ligand FACS assays); assay: two-colour FACS profile on transfected cells; score of preference for CD28-Ig over CTLA-4-Ig vs WT hB7-1
T1 construct: extracellular domain; Bought from R&D Systems; also called sCD28-Ig; CD28-Ig Fc; not shown: Fc portion of human IgG1
assayEndpoint: Binding Score
Number only, please.

{"columns": ["binder", "Binding Score"],
 "data": [
  ["Round 2 CD28BP-13 (ligand) ITPKSVTKRVKETVMLSCDYSTSTEELTSLRIYWQKDSKMVLAILPGKVQVWPEYKNRTITDMNDNPRIVILALRLSDSGTYTCVIQKPVLKGAYKLEHLASVRLMIRADFPVPTINDLGNPSPNIRRLICSTSGGFPEPRLAWMEDGEELNAVNTTVDQDLDTELYSVSSELDFNVTNNHSIVCLIKYGELSVSQIFPWSKPKQEPPIDQLPFWVIIPVSGALVLTAVVLYCLACRHVARWKRTRRNEETVGTERLSPIYLGSAQSSG", 2]
]}

Provide Binding Score value for the following binder: Round 2 CD28F3-6 (ligand) ITPKSVTKRVKETVMLSCDYSTSTEELTSLRIYWQKDSKMVLAILPGKVQVWPEYKNRTITDMNDNPRIVILALRLSDSGTYTCVIQKPDLKGAYKLEHLTSVRLMIRADFPVPTINDLGNPSPNIRRLICSTSGGFPRPHLYWLENGEELNATNTTLSQDPETKLYMISSELDFNVTNNHSIVCLIKYGELSVSQIFPWSKPKQEPPIDQLPFWVIIPVSGALVLTAVVLYCLACRHVARWKRTRRNEETVGTERLSPIYLGSAQSSG
0

The reported measurements were obtained from patent US20050154189A1.
